# SUBJECT_OF_TEST: Pseudomonas aeruginosa LpxC enzyme (Pseudomonas aeruginosa (strain ATCC 15692 / DSM 22644 / CIP 104116 / JCM 14847 / LMG 12228 / 1C / PRS 101 / PAO1), UniProt P47205)
# PROTOCOL_DETAILS: biochemical
# Format: biochemical
# STATED_CONDITIONS: Table 4; read-out: Pseudomonas aeruginosa LpxC IC50
Decision: IC50 beneath 3 nM gives true; IC50 meeting or exceeding 3 nM gives false.

INSERT INTO assay_data (molecule, assigned_class) VALUES
  ('CNC(=O)C(C)(C(=O)NO)N(C)C(=O)c1ccc(C#Cc2coc(COC)c2)cc1 (centres unmarked)', 'false'),
  ('CNC(=O)[C@@](C)(C(=O)NO)N(C)C(=O)c1ccc(C#Cc2ccc(CN3CCCOCC3)cc2)cc1', 'true'),
  ('CNC(=O)[C@@](C)(C(=O)NO)N(C)C(=O)c1ccc(C#Cc2coc(CNC3CC3)c2)cc1', 'false'),
  ('CNC(=O)C(C(=O)NO)N(C)C(=O)c1ccc(C#Cc2ccc(CN3CCCOCC3)cc2)cc1 (centres unmarked)', 'false'),
  ('CNC(=O)[C@@](C)(C(=O)NO)N(C)C(=O)c1ccc(/C=C/c2ccc(CN3CCOCC3)cc2)cc1', 'true'),
  ('CCOc1ccc(-c2ccc(C(=O)N(C)C(C(=O)NC)C(=O)NO)cc2)cc1 (centres unmarked)', 'false'),
  ('CNC(=O)C(C(=O)NO)N(C)C(=O)c1ccc(-c2ccc(C#CCOC)cc2)cc1 (centres unmarked)', 'true'),
  ('CNC(=O)[C@@](C)(C(=O)NO)N(C)C(=O)c1ccc(CCc2ccc(CN3CCOCC3)cc2)cc1', 'false');
